Reported pIC50 values for the following compounds.
System: Human immunodeficiency virus 1
Experiment: Concentration required for 50% protection of MT-4 cells against the cytopathic effect of HIV-1
Assay type: functional, organism-based
Details: Human immunodeficiency virus 1, MT4
Recall that pIC50 is obtained by taking minus log10 of the concentration measured in molar.

# Compound, System Tested, Reported Measurement
records = [
    ("C[C@H]1Cn2c(=O)[nH]c3cc(N)cc(c32)CN1CC1CC1", "Human immunodeficiency virus 1", 4.22),
    ("CC(C)=CCN1Cc2cc(Cl)c(Cl)c3nc(S)n(c23)C[C@@H]1C", "Human immunodeficiency virus 1", 7.59),
    ("CC(C)=CCN1Cc2cc(Cl)cc3[nH]c(=S)n(c23)C[C@@H]1C", "Human immunodeficiency virus 1", 7.47),
    ("CC(C)=CCN1Cc2c(C)ccc3nc(S)n(c23)C[C@@H]1C", "Human immunodeficiency virus 1", 7.87),
]

**Query** # value lookup — system Human immunodeficiency virus 1, readout pIC50, item `CC(C)=CCN1Cc2c(C#N)ccc3nc(S)n(c23)C[C@@H]1C`
**Result** 7.25

**Query** Item: CC(C)=CCN1Cc2c(C)ncc3nc(O)n(c23)CC1C (stereo not given)
**Result** 3.06

**Query** Okay, and `CC(C)=CCN1Cc2c(F)ccc3nc(S)n(c23)C[C@@H]1C` ?
**Result** 8.24

**Query** Same again, this time with `C[C@H]1Cn2c(=O)[nH]c3cc(N(C)C)cc(c32)CN1CC1CC1`
**Result** 5.18

**Query** What do you have for `C[C@H]1Cn2c(=S)[nH]c3cc([N+](=O)[O-])cc(c32)CN1CC1CC1` ?
**Result** 5.61

**Query** Now this one: `CC(C)=CCN1Cc2c(Br)ccc3nc(O)n(c23)C[C@@H]1C`
**Result** 7.33

**Query** Could you do the same for `CC(C)=CCN1Cc2c(C)ccc3nc(O)n(c23)C[C@@H]1C` , please?
**Result** 6.00

**Query** Try this compound next: `CC(C)=CCN1Cc2c(Br)ccc3nc(S)n(c23)C[C@@H]1C`
**Result** 8.52

**Query** Next record, please: `CC(C)=CCN1Cc2c(C=O)ccc3nc(S)n(c23)C[C@@H]1C`
**Result** 6.73

----------
Test system: Human immunodeficiency virus 1
Experiment: Concentration required for 50% protection of MT-4 cells against the cytopathic effect of HIV-1
Assay type: functional, organism-based
Conditions: Human immunodeficiency virus 1, MT4
Experimental Endpoint: pIC50
Please treat pIC50 as minus the base-10 logarithm of the molar concentration.

Use these answered entries as a reference point.
# Compound, pIC50
rows = [
    ("COc1ccc2[nH]c(=S)n3c2c1CN(CC=C(C)C)[C@@H](C)C3", 7.47),
    ("CCOc1ccc2[nH]c(=S)n3c2c1CN(CC=C(C)C)[C@@H](C)C3", 7.02),
    ("CC(C)=CCN1Cc2c(Cl)ccc3[nH]c(=S)n(c23)C[C@@H]1C", 8.37),
    ("C[C@H]1Cn2c(=O)[nH]c3ccc(N(C)C)c(c32)CN1CC1CC1", 5.18),
    ("Cc1cn([C@H]2C[C@H](N=[N+]=[N-])[C@@H](CO)O2)c(=O)[nH]c1=O", 8.39),
]

**Query** Using the record for `CCC(=CCN1Cc2cc(C(C)(C)C)cc3nc(O)n(c23)C[C@@H]1C)CC` , report its pIC50.
**Result** 6.50

**Query** Entry CCC(=CCN1Cc2c(C)ncc3nc(S)n(c23)CC1C)CC (stereo not given) please
**Result** 6.61

**Query** And `CC(C)=CCN1Cc2cc(F)cc3nc(S)n(c23)C[C@@H]1C` ?
**Result** 7.60

**Query** # iterate: `C#Cc1ccc2nc(O)n3c2c1CN(CC=C(C)C)[C@@H](C)C3`
**Result** 6.36

**Query** Similarly, Cc1ncc2nc(O)n3c2c1CN(CC1CC1)C(C)C3 (stereo not given) ?
**Result** 3.22

----------
Test system: Human immunodeficiency virus 1
Test: Concentration required for 50% protection of MT-4 cells against the cytopathic effect of HIV-1
Format: functional, organism-based
Conditions: Human immunodeficiency virus 1, MT4
Experimental Endpoint: IC50 (µM)
Use µM as the unit, but write only the number.

Example compounds with recorded IC50:
# Compound String, IC50 [µM]
measured = [
    ("CSc1ccc2[nH]c(=S)n3c2c1CN(CC=C(C)C)[C@@H](C)C3", 0.005),
    ("CC(C)=CCN1Cc2c(C(N)=O)ccc3[nH]c(=O)n(c23)C[C@@H]1C", 6.36),
]

**Query** What does the data say about its IC50? Entry: `C[C@H]1Cn2c(=O)[nH]c3ccc(N)c(c32)CN1CC1CC1`
**Result** 849

**Query** Then what about the compound `COc1ccc2c3c1[nH]c(=S)n3C[C@H](C)N(CC=C(C)C)C2` ?
**Result** 4.73

**Query** `C#Cc1ccc2nc(S)n3c2c1CN(CC=C(C)C)[C@@H](C)C3` ?
**Result** 0.0296

Ref: ChEMBL document CHEMBL1128253
